Value source: the Immune Epitope Database (IEDB)

EXPERIMENTAL SYSTEM: HLA-B*39:01
ASSAY METHOD TEXT: IEDB peptide-MHC binding, purified MHC/competitive/fluorescence; filed as Kd, often an IC50 or EC50 that approximates it; bounds were set here for any values at or beyond the usual limits of such assays
ASSAY CONTEXT: source organism: Toxoplasma gondii
pKd: −log10 of the molar value.
METRIC NAME: pKd

Lookup result for VSSHKGWAK ; measured pKd: ≤ 4.70

---

EXPERIMENTAL SYSTEM: HLA-B*08:01
ASSAY METHOD TEXT: IEDB peptide-MHC binding, purified MHC/competitive/fluorescence; filed as Kd, often an IC50 or EC50 that approximates it; bounds were set here for any values at or beyond the usual limits of such assays
ASSAY CONTEXT: source organism: Entamoeba histolytica HM-1:IMSS
pKd: −log10 of the molar value.
METRIC NAME: pKd

Lookup result for EVIRATYPS ; measured pKd: ≤ 5.30

---

EXPERIMENTAL SYSTEM: HLA-B*46:01
ASSAY METHOD TEXT: IEDB peptide-MHC binding, purified MHC/competitive/fluorescence; filed as Kd, often an IC50 or EC50 that approximates it; bounds were set here for any values at or beyond the usual limits of such assays
ASSAY CONTEXT: source organism: Toxoplasma gondii
METRIC NAME: Kd

Lookup result for VSSHKGWAK ; measured Kd: ≥ 20 µM

---

EXPERIMENTAL SYSTEM: HLA-A*24:02
ASSAY METHOD TEXT: IEDB peptide-MHC binding, purified MHC/competitive/fluorescence; bounds were set here for any values at or beyond the usual limits of such assays
ASSAY CONTEXT: source organism: Zaire ebolavirus
Entries whose IC50 is below 10 µM take label 1; entries at or above 10 µM take label 0.

Example cases with answers are listed next.
Exercise: Dear colleague, could you confirm whether IC50 of VTLDGQQFY falls below 10 µM? Thanks.
Key: label 0

Exercise: Dear colleague, could you confirm whether IC50 of PFARLLNLS falls below 10 µM? Thanks.
Key: label 0

Exercise: Dear colleague, could you confirm whether IC50 of GIVRQRVIP falls below 10 µM? Thanks.
Key: label 0

***
Exercise: Dear colleague, could you confirm whether IC50 of NYEAGEWAE falls below 10 µM? Thanks.
Key: label 0

Exercise: Dear colleague, could you confirm whether IC50 of LLPAVSSGK falls below 10 µM? Thanks.
Key: label 0

Exercise: Dear colleague, could you confirm whether IC50 of MRTNFLIKF falls below 10 µM? Thanks.
Key: label 1

Exercise: Dear colleague, could you confirm whether IC50 of DSFLLMLCL falls below 10 µM? Thanks.
Key: label 0

Exercise: Dear colleague, could you confirm whether IC50 of WVIILFQRT falls below 10 µM? Thanks.
Key: label 0

Exercise: Dear colleague, could you confirm whether IC50 of GVDFQESAD falls below 10 µM? Thanks.
Key: label 0

Exercise: Dear colleague, could you confirm whether IC50 of VIFRLMRTN falls below 10 µM? Thanks.
Key: label 0

Exercise: Dear colleague, could you confirm whether IC50 of YKLDISEAT falls below 10 µM? Thanks.
Key: label 0

Exercise: Dear colleague, could you confirm whether IC50 of GLIQYPTAW falls below 10 µM? Thanks.
Key: label 0

Exercise: Dear colleague, could you confirm whether IC50 of LFQRTFSIP falls below 10 µM? Thanks.
Key: label 1

Exercise: Dear colleague, could you confirm whether IC50 of GLAWIPYFG falls below 10 µM? Thanks.
Key: label 0

Exercise: Dear colleague, could you confirm whether IC50 of STSPRMLTP falls below 10 µM? Thanks.
Key: label 0

Exercise: Dear colleague, could you confirm whether IC50 of AFWETKKNL falls below 10 µM? Thanks.
Key: label 1

---

EXPERIMENTAL SYSTEM: HLA-B*15:17
ASSAY METHOD TEXT: IEDB peptide-MHC binding, purified MHC/competitive/fluorescence; filed as Kd, often an IC50 or EC50 that approximates it; bounds were set here for any values at or beyond the usual limits of such assays
ASSAY CONTEXT: source organism: Cryptosporidium parvum Iowa II
METRIC NAME: Kd

Lookup result for DLAQDPMLI ; measured Kd: ≥ 20 µM

---

EXPERIMENTAL SYSTEM: HLA-A*02:12
ASSAY METHOD TEXT: IEDB peptide-MHC binding, purified MHC/direct/fluorescence; filed as Kd, often an IC50 or EC50 that approximates it; bounds were set here for any values at or beyond the usual limits of such assays
ASSAY CONTEXT: source organism: Choclo virus
pKd: −log10 of the molar value.
METRIC NAME: pKd

Form field, pKd with HLA-A*02:12, item ELRQLAQSL : ≤ 4.70

---

EXPERIMENTAL SYSTEM: HLA-A*02:06
ASSAY METHOD TEXT: IEDB peptide-MHC binding, purified MHC/competitive/fluorescence; filed as Kd, often an IC50 or EC50 that approximates it; bounds were set here for any values at or beyond the usual limits of such assays
ASSAY CONTEXT: source organism: Desulfatibacillum alkenivorans AK-01
METRIC NAME: pKd
The scale used: pKd is minus the common logarithm of the concentration in molar units.

Lookup result for KLGKAGYVV ; measured pKd: 8.72

---

EXPERIMENTAL SYSTEM: HLA-A*31:01
ASSAY METHOD TEXT: IEDB peptide-MHC binding, purified MHC/direct/fluorescence; filed as Kd, often an IC50 or EC50 that approximates it; bounds were set here for any values at or beyond the usual limits of such assays
ASSAY CONTEXT: source organism: Vibrio cholerae
METRIC NAME: Kd

Form field, Kd with HLA-A*31:01, item GLRWHVRAF : ≥ 20 µM

---

EXPERIMENTAL SYSTEM: HLA-B*57:01
ASSAY METHOD TEXT: IEDB peptide-MHC binding, purified MHC/competitive/radioactivity; filed as Kd, often an IC50 or EC50 that approximates it; bounds were set here for any values at or beyond the usual limits of such assays
ASSAY CONTEXT: source organism: Dengue virus 3 Martinique/1243/1999
METRIC NAME: pKd
The scale used: pKd is minus the common logarithm of the concentration in molar units.

Form field, pKd with HLA-B*57:01, item NSSFIIDGPN : 6.85

---

EXPERIMENTAL SYSTEM: HLA-B*51:01
ASSAY METHOD TEXT: IEDB peptide-MHC binding, purified MHC/competitive/fluorescence; filed as Kd, often an IC50 or EC50 that approximates it; bounds were set here for any values at or beyond the usual limits of such assays
ASSAY CONTEXT: source organism: Reston ebolavirus
pKd: −log10 of the molar value.
METRIC NAME: pKd

Form field, pKd with HLA-B*51:01, item RTYSLLNRK : ≤ 4.70

---

EXPERIMENTAL SYSTEM: HLA-A*26:01
ASSAY METHOD TEXT: IEDB peptide-MHC binding, purified MHC/competitive/fluorescence; filed as Kd, often an IC50 or EC50 that approximates it; bounds were set here for any values at or beyond the usual limits of such assays
ASSAY CONTEXT: source organism: Vibrio vulnificus YJ016
pKd: −log10 of the molar value.
# pKd listing for each entry below

Lookup result for TSCAPMMQK ; measured pKd: ≤ 4.70

Note: attention shifts to another entry.
Lookup result for VTFGARASF ; measured pKd: ≤ 4.70

---

EXPERIMENTAL SYSTEM: HLA-B*35:01
ASSAY METHOD TEXT: IEDB peptide-MHC binding, purified MHC/competitive/radioactivity; filed as Kd, often an IC50 or EC50 that approximates it; bounds were set here for any values at or beyond the usual limits of such assays
ASSAY CONTEXT: source organism: Hepatitis C virus (isolate 1)
pKd: −log10 of the molar value.
METRIC NAME: pKd

Lookup result for HSKKKCDEL ; measured pKd: ≤ 4.11

---

EXPERIMENTAL SYSTEM: HLA-B*15:09
ASSAY METHOD TEXT: IEDB peptide-MHC binding, purified MHC/competitive/fluorescence; filed as Kd, often an IC50 or EC50 that approximates it; bounds were set here for any values at or beyond the usual limits of such assays
ASSAY CONTEXT: source organism: Francisella tularensis subsp. tularensis FSC198
METRIC NAME: Kd
Answer with the figure and its unit, nothing else.

Lookup result for REIGDISYL ; measured Kd: 2000 nM

---

EXPERIMENTAL SYSTEM: HLA-B*44:02
ASSAY METHOD TEXT: IEDB peptide-MHC binding, purified MHC/competitive/radioactivity; filed as Kd, often an IC50 or EC50 that approximates it; bounds were set here for any values at or beyond the usual limits of such assays
ASSAY CONTEXT: source organism: Dengue virus 1 Singapore/S275/1990
METRIC NAME: Kd (nM)
Kindly provide the numeric value in nM only, without the unit symbol.

Lookup result for SEGIFSPSEL ; measured Kd: 66.3
